Reported MIC values for a set of molecules
experiment: MIC of test compounds against various organisms; assay type: cell-based; conditions: against one or more of the above range of gram positive and gram negative bacteria
Where a name gives a salt, the structure may show the parent alone.

Worked examples follow.
COc1ccc2nccc([C@@H](O)CN3CCC(NCC(=O)Nc4ccccc4C#N)CC3)c2c1	≤ 0.25 µg/mL
COc1ccc2nccc([C@@H](O)CN3CCC(N(C)CC(=O)Nc4ccccc4)CC3)c2c1.O=C(O)C(=O)O.O=C(O)C(=O)O	≤ 32 µg/mL
CCOC(=O)C1CN(C[C@H](O)c2ccnc3ccc(OC)cc23)CCC1NCC(=O)Nc1ccccc1 (mixture of isomers)	≤ 0.25 µg/mL
COc1ccc2nccc([C@@H](O)CN3CCC(NCC(=O)Nc4ccccc4)CC3)c2c1	≤ 0.25 µg/mL
COc1ccc2nccc([C@@H](O)CN3CCC(NCC(=O)Nc4cccc(C#N)c4)CC3)c2c1 [Example 34, dioxalate]	≤ 32 µg/mL

## Input Given COc1ccc2nccc(CCN3CCC(NCC(=O)Nc4ccc(F)cc4)CC3)c2c1 [Example 42, dioxalate] , state its recorded MIC.
## Output ≤ 2 µg/mL

## Input # lookup: MIC of COc1ccc2nccc([C@@H](O)CN3CCC(NCC(=O)Nc4ccc(F)cc4)CC3)c2c1
## Output ≤ 2 µg/mL

## Input Data request, read-out MIC, for COc1ccc2nccc([C@@H](O)CN3CCC(NCC(=O)Nc4ccccc4)C(C(N)=O)C3)c2c1 (mixture of isomers)
## Output ≤ 2 µg/mL

## Input Report MIC for COc1ccc2nccc([C@@H](O)CN3CCC(NCC(=O)Nc4ccccn4)CC3)c2c1 [Example 13, dioxalate] please.
## Output ≤ 0.25 µg/mL

## Input Would you mind telling me what MIC value was observed for COc1ccc2nccc([C@@H](O)CN3CCC(NCC(=O)Nc4ccc(Cl)c(Cl)c4)CC3)c2c1 ?
## Output ≤ 2 µg/mL

## Input Can you share its MIC? I mean this molecule: COc1ccc2nccc([C@@H](O)CN3CCC(NC(=O)/C=C/c4ccco4)CC3)c2c1 [Example 72, oxalate]
## Output ≤ 2 µg/mL

## Input State the recorded MIC for this entry: COc1ccc2nccc([C@@H](O)CN3CCC(NCC(=O)Nc4ccccc4[N+](=O)[O-])CC3)c2c1
## Output ≤ 0.25 µg/mL

## Input If you can, please state the reported MIC value of COc1cc(F)c2nccc([C@@H](O)CN3CCC(NCCOc4ccccn4)CC3)c2c1 .
## Output ≤ 0.25 µg/mL

## Input Which MIC value is on record for COc1ccc2nccc([C@@H](O)CN3CCC(NCC(=O)Nc4ccc(F)c(F)c4)CC3)c2c1 ?
## Output ≤ 0.25 µg/mL

## Input Fill in: MIC of COc1ccc2nccc(NC(=O)N3CCC(NCC(=O)Nc4ccccc4)C(CO)C3)c2c1 (racemic) is ___
## Output ≤ 32 µg/mL
